# measured.target: T1, IKKα(10-667) S176E/S180E homodimer, 6×His tag removed (human, UniProt O15111 10-667)
# T1 construct: also called purified IKKα
# T1 sequence (looked up): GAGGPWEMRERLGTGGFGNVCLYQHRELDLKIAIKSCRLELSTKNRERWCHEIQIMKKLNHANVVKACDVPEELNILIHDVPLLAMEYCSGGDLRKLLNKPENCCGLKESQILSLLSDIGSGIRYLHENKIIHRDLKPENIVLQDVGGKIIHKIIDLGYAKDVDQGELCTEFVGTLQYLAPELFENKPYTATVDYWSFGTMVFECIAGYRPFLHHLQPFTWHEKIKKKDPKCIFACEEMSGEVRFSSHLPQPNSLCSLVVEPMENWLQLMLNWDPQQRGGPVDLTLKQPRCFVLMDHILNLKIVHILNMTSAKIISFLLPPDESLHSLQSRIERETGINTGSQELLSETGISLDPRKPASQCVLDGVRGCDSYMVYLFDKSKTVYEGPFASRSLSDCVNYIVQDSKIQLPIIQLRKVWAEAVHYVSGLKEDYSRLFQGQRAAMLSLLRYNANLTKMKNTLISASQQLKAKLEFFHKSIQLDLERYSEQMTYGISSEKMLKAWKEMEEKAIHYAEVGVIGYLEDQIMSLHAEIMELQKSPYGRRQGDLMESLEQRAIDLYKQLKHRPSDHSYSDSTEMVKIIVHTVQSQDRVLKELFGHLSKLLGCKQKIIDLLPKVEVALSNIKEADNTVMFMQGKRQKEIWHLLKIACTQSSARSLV
# run.description: ITC, given as a lower bound
property.label: Kd

In one line, give reported Kd of the entry LSSANSLYDDIECFLMELEQPA [synthetic IRF7 pep] . > 90 µM
